Assay: AUC in Wistar Han rat at 300 mg/kg, po by LC/MS method
Assay type: ADME, organism-based
Details: in vivo
reported.property: AUC (µM·h)

compound	reported.property	experimental.value
COC(=O)N[C@H](C(=O)N1CCC[C@H]1c1ncc(-c2cc(F)c3c(c2)O[C@@H](c2ccc(C4CC4)s2)n2c-3cc3cc(-c4cnc([C@@H]5CCCN5C(=O)[C@@H](NC(=O)OC)C5C[C@@H](C)O[C@@H](C)C5)[nH]4)ccc32)[nH]1)C(C)C (some centres undefined)	AUC	4.08
COC(=O)N[C@H](C(=O)N1CCC[C@H]1c1ncc(-c2cc(F)c3c(c2)O[C@@H](c2ccc(C4CC4)s2)n2c-3cc3cc(-c4cnc([C@@H]5CCCN5C(=O)[C@@H](NC(=O)OC)C5C[C@@H](C)O[C@H](C)C5)[nH]4)ccc32)[nH]1)C(C)C (some centres undefined)	AUC	5.58
COC(=O)N[C@H](C(=O)N1CCC[C@H]1c1ncc(-c2cc(F)c3c(c2)O[C@@H](c2ccc(C4CC4)s2)n2c-3cc3cc(-c4cnc([C@@H]5CCCN5C(=O)[C@@H](NC(=O)OC)C5CCOCC5)[nH]4)ccc32)[nH]1)C(C)C	AUC	3.99
COC(=O)N[C@H](C(=O)N1CCC[C@H]1c1ncc(-c2cc(F)c3c(c2)O[C@@H](c2ccc(C4CC4)s2)n2c-3cc3cc(-c4cnc([C@@H]5CCCN5C(=O)[C@@H](NC(=O)OC)[C@@H]5CCOC(C)(C)C5)[nH]4)ccc32)[nH]1)C(C)C	AUC	14.7

====

Molecular target: Nonstructural protein 5A (Hepatitis C virus)
Sequence (whole entry): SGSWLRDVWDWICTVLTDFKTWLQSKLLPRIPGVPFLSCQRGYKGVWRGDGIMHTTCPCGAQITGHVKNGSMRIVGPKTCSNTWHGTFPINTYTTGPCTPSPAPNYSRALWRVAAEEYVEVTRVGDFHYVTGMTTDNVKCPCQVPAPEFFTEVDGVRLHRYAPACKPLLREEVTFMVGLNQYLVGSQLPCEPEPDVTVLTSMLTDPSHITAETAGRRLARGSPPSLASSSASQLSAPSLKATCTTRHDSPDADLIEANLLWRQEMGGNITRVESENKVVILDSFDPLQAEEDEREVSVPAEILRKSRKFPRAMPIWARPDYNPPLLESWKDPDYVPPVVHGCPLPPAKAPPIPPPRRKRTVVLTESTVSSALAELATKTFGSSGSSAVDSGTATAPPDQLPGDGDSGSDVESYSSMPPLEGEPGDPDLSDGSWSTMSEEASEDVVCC
Test: Inhibition of NS5A in HCV genotype 3a infected in HuH7 replicon cells assessed as decrease in viral replication after 3 days by RT-PCR method
Type: cell-based
Settings: Hepatitis C virus subtype 3a
EC90 for assorted compounds

compound	value.units	EC90
COC(=O)N[C@H](C(=O)N1CCC[C@H]1c1ncc(-c2cc(F)c3c(c2)O[C@@H](c2ccc(C4CC4)s2)n2c-3cc3cc(-c4cnc([C@@H]5CCCN5C(=O)[C@@H](NC(=O)OC)C5CC(C)(C)OC(C)(C)C5)[nH]4)ccc32)[nH]1)C(C)C	nM	0.007
COC(=O)N[C@H](C(=O)N1CCC[C@H]1c1ncc(-c2cc(F)c3c(c2)O[C@@H](c2ccc(C(F)F)s2)n2c-3cc3cc(-c4cnc([C@@H]5CCCN5C(=O)[C@@H](NC(=O)OC)C5CCOCC5)[nH]4)ccc32)[nH]1)C(C)C	nM	0.01
COC(=O)N[C@H](C(=O)N1CCC[C@H]1c1ncc(-c2cc(F)c3c(c2)O[C@@H](c2ccc(C4CC4)s2)n2c-3cc3cc(-c4cnc([C@@H]5CCCN5C(=O)[C@@H](NC(=O)OC)C5CC6CCC(C5)O6)[nH]4)ccc32)[nH]1)C(C)C (stereo partly drawn)	nM	0.012

====

Test: AUC in Wistar Han rat at 100 mg/kg, po by LC/MS method
Type: ADME, organism-based
Conditions: in vivo
AUC for assorted compounds

compound	AUC / µM·h
COC(=O)N[C@H](C(=O)N1CCC[C@H]1c1ncc(-c2cc(F)c3c(c2)O[C@@H](c2ccc(C4CC4)s2)n2c-3cc3cc(-c4cnc([C@@H]5CCCN5C(=O)[C@@H](NC(=O)OC)C5CCOCC5)[nH]4)ccc32)[nH]1)C(C)C	1.64
COC(=O)N[C@H](C(=O)N1CCC[C@H]1c1ncc(-c2cc(F)c3c(c2)O[C@@H](c2ccc(C4CC4)s2)n2c-3cc3cc(-c4cnc([C@@H]5CCCN5C(=O)[C@@H](NC(=O)OC)C5C[C@@H](C)O[C@@H](C)C5)[nH]4)ccc32)[nH]1)C(C)C (some centres undefined)	1.95
COC(=O)N[C@H](C(=O)N1CCC[C@H]1c1ncc(-c2cc(F)c3c(c2)O[C@@H](c2ccc(C4CC4)s2)n2c-3cc3cc(-c4cnc([C@@H]5CCCN5C(=O)[C@@H](NC(=O)OC)[C@@H]5CCOC(C)(C)C5)[nH]4)ccc32)[nH]1)C(C)C	7.82
COC(=O)N[C@H](C(=O)N1CCC[C@H]1c1ncc(-c2cc(F)c3c(c2)O[C@@H](c2ccc(C4CC4)s2)n2c-3cc3cc(-c4cnc([C@@H]5CCCN5C(=O)[C@@H](NC(=O)OC)C5C[C@@H](C)O[C@H](C)C5)[nH]4)ccc32)[nH]1)C(C)C (some centres undefined)	2.07

====

Assay: AUC in Wistar Han rat at 10 mg/kg, po by LC/MS method
Format: ADME, organism-based
Conditions: in vivo
AUC for assorted molecules

molecule	AUC, µM·h
COC(=O)N[C@H](C(=O)N1CCC[C@H]1c1ncc(-c2cc(F)c3c(c2)O[C@@H](c2ccc(C4CC4)s2)n2c-3cc3cc(-c4cnc([C@@H]5CCCN5C(=O)[C@@H](NC(=O)OC)C5CCO[C@H](C)C5)[nH]4)ccc32)[nH]1)C(C)C (some centres undefined)	0.21
COC(=O)N[C@H](C(=O)N1CCC[C@H]1c1ncc(-c2cc(F)c3c(c2)O[C@@H](c2ccc(C4CC4)s2)n2c-3cc3cc(-c4cnc([C@@H]5CCCN5C(=O)[C@@H](NC(=O)OC)C5CCO[C@@H](C)C5)[nH]4)ccc32)[nH]1)C(C)C (some centres undefined)	0.19
COC(=O)N[C@H](C(=O)N1CCC[C@H]1c1ncc(-c2cc(F)c3c(c2)O[C@@H](c2cnc(C4CC4)s2)n2c-3cc3cc(-c4cnc([C@@H]5CCCN5C(=O)[C@@H](NC(=O)OC)[C@@H]5CCOC(C)(C)C5)[nH]4)ccc32)[nH]1)C(C)C	0.51

====

Test: AUC in Wistar Han rat at 10 mg/kg, po by LC/MS method
Format: ADME, organism-based
Details: in vivo

smiles.structure	AUC [µM·h]
CCc1ncc([C@@H]2Oc3cc(-c4cnc([C@@H]5CCCN5C(=O)[C@@H](NC(=O)OC)C(C)C)[nH]4)cc(F)c3-c3cc4cc(-c5cnc([C@@H]6CCCN6C(=O)[C@@H](NC(=O)OC)[C@@H]6CCOC(C)(C)C6)[nH]5)ccc4n32)s1	0.05
COC(=O)N[C@H](C(=O)N1CCC[C@H]1c1ncc(-c2cc(F)c3c(c2)O[C@@H](c2ccc(C4CC4)s2)n2c-3cc3cc(-c4cnc([C@@H]5CCCN5C(=O)[C@@H](NC(=O)OC)[C@H]5CCOC(C)(C)C5)[nH]4)ccc32)[nH]1)C(C)C	0.24

====

Target: UniProt:Q5L478
Sequence (whole entry): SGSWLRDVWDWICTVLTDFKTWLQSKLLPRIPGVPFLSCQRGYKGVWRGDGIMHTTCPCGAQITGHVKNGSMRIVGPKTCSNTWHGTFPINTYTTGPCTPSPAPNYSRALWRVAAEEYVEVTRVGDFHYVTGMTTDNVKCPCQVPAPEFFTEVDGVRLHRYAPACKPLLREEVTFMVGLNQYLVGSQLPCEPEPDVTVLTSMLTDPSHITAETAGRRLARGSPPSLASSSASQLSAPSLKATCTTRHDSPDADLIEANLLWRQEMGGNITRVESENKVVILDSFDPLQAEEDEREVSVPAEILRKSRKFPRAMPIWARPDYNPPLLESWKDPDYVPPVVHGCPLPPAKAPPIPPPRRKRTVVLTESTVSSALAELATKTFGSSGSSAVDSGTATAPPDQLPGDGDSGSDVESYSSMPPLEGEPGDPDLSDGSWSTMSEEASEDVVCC
Test: Inhibition of NS5A in HCV genotype 1b infected in HuH7 replicon cells assessed as decrease in viral replication after 3 days by RT-PCR method
Assay type: cell-based
Details: Hepatitis C virus subtype 1b
EC90 for assorted compounds

compound	value.units	EC90
COC(=O)N[C@H](C(=O)N1CCC[C@H]1c1ncc(-c2ccc3c(c2)cc2n3[C@H](c3ccc4c(c3)OCCC4)Oc3cc(-c4cnc([C@@H]5CCCN5C(=O)[C@@H](NC(=O)OC)C5CCOCC5)[nH]4)cc(F)c3-2)[nH]1)C(C)C	pM	3
COC(=O)N[C@H](C(=O)N1CCC[C@H]1c1ncc(-c2cc(F)c3c(c2)O[C@@H](c2ccc(C(F)(F)F)s2)n2c-3cc3cc(-c4cnc([C@@H]5CCCN5C(=O)[C@@H](NC(=O)OC)C5CCOCC5)[nH]4)ccc32)[nH]1)C(C)C	pM	5
COC(=O)N[C@H](C(=O)N1CCC[C@H]1c1ncc(-c2cc(F)c3c(c2)O[C@@H](c2ccc4c(c2)CCCO4)n2c-3cc3cc(-c4cnc([C@@H]5CCCN5C(=O)[C@@H](NC(=O)OC)C5CCOCC5)[nH]4)ccc32)[nH]1)C(C)C	pM	3
COC(=O)N[C@H](C(=O)N1CCC[C@H]1c1ncc(-c2cc(F)c3c(c2)O[C@@H](c2ccc(C4CC4)s2)n2c-3cc3cc(-c4cnc([C@@H]5CCCN5C(=O)[C@@H](NC(=O)OC)C5CCO[C@@H](C)C5)[nH]4)ccc32)[nH]1)C(C)C (some centres undefined)	pM	7
